Attribution: PubChem BioAssay AID1963445

Test system: MCF7 complex spheroid growth, % test/control
Assay Text: Anticancer human tumor MCF7 cell line growth inhibition [Asc]; active = viability on the fitted dose curve at most 10% of control; inactive = the rest;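 note: spheroids exposed to compounds for 7 days; 100% = DMSO vehicle control wells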
Condition Details: second compound 0.3 µM; first compound 0.316 µM
Classes used: active, inactive

[
  {
    "Compound": "COc1c(OCCCN2CCOCC2)ccc2c3n(c(=NC(=O)c4cnc(N)nc4)nc12)CCN3 + CCN1C(C(=O)NC23CCC(C(=O)O)(CC2)CC3)C(c2cccc(Cl)c2F)C2(C(=O)Nc3cc(Cl)ccc32)C12CCCCC2",
    "Class Label": "active"
  },
  {
    "Compound": "C=C(F)C(=O)N1CCN(c2nc(OCC3CCCN3C)nc3c2CCN(c2cccc4cccc(Cl)c24)C3)CC1CC#N (configuration not stated) + CCN1C(C(=O)NC23CCC(C(=O)O)(CC2)CC3)C(c2cccc(Cl)c2F)C2(C(=O)Nc3cc(Cl)ccc32)C12CCCCC2",
    "Class Label": "inactive"
  }
]

---

Measured viability, T/C of individual entries
Test system: MCF7 complex spheroid growth, % test/control
Assay Text: Anticancer human tumor MCF7 cell line growth inhibition [Asc];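 note: spheroids exposed to compounds for 7 days; 100% = DMSO vehicle control wells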
Condition Details: second compound 3.16 µM; first compound 1 µM; stronger effect = lower value
Recorded Metric: viability, T/C (%)

[
  {
    "Compound": "COc1c(OCCCN2CCOCC2)ccc2c3n(c(=NC(=O)c4cnc(N)nc4)nc12)CCN3 + Cc1c(S(C)(=O)=O)c(-c2cc(F)cc(N3CCN(c4ccc(NS(=O)(=O)c5ccc(NC(CCN6CCC(C(=O)OCCCP(=O)(O)O)CC6)CSc6ccccc6)c(S(=O)(=O)C(F)(F)F)c5)cc4)CC3)c2)c(-c2ccc(Cl)cc2)n1C(C)C",
    "Recorded Metric": "viability, T/C",
    "Endpoint Unit": "%",
    "Numeric Value": 13.4
  },
  {
    "Compound": "C=C(F)C(=O)N1CCN(c2nc(OCC3CCCN3C)nc3c2CCN(c2cccc4cccc(Cl)c24)C3)CC1CC#N (configuration not stated) + Cc1c(S(C)(=O)=O)c(-c2cc(F)cc(N3CCN(c4ccc(NS(=O)(=O)c5ccc(NC(CCN6CCC(C(=O)OCCCP(=O)(O)O)CC6)CSc6ccccc6)c(S(=O)(=O)C(F)(F)F)c5)cc4)CC3)c2)c(-c2ccc(Cl)cc2)n1C(C)C",
    "Recorded Metric": "viability, T/C",
    "Endpoint Unit": "%",
    "Numeric Value": 81.7
  }
]

---

Tested on: MCF7 complex spheroid growth, % test/control
Assay Text: Anticancer human tumor MCF7 cell line growth inhibition [Asc];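 note: spheroids exposed to compounds for 7 days; 100% = DMSO vehicle control wells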
Condition Details: second compound 0.1 µM; first compound 0.01 µM; stronger effect = lower value
Here the recorded viability, T/C is given for each entry.

[
  {
    "Compound": "COc1c(OCCCN2CCOCC2)ccc2c3n(c(=NC(=O)c4cnc(N)nc4)nc12)CCN3 + CNC(C)C(=O)NC1CN(S(=O)(=O)c2cccc(S(=O)(=O)N3CCC4CCC(C(=O)NC(c5ccccc5)c5ccccc5)N4C(=O)C(NC(=O)C(C)NC)C3)c2)CCC2CCC(C(=O)NC(c3ccccc3)c3ccccc3)N2C1=O",
    "viability, T/C, %": 11.1
  },
  {
    "Compound": "NC1CCC(NC2CC2c2ccccc2)CC1 (stereo not drawn) + Cc1c(S(C)(=O)=O)c(-c2cc(F)cc(N3CCN(c4ccc(NS(=O)(=O)c5ccc(NC(CCN6CCC(C(=O)OCCCP(=O)(O)O)CC6)CSc6ccccc6)c(S(=O)(=O)C(F)(F)F)c5)cc4)CC3)c2)c(-c2ccc(Cl)cc2)n1C(C)C",
    "viability, T/C, %": 115
  },
  {
    "Compound": "O=C(c1ccc(F)c(F)c1Nc1ccc(I)cc1F)N1CC(O)([C@@H]2CCCCN2)C1 + CNC(C)C(=O)NC1CN(S(=O)(=O)c2cccc(S(=O)(=O)N3CCC4CCC(C(=O)NC(c5ccccc5)c5ccccc5)N4C(=O)C(NC(=O)C(C)NC)C3)c2)CCC2CCC(C(=O)NC(c3ccccc3)c3ccccc3)N2C1=O",
    "viability, T/C, %": 13.5
  },
  {
    "Compound": "NC1CCC(NC2CC2c2ccccc2)CC1 (stereo not drawn) + CNC(C)C(=O)NC1CN(S(=O)(=O)c2cccc(S(=O)(=O)N3CCC4CCC(C(=O)NC(c5ccccc5)c5ccccc5)N4C(=O)C(NC(=O)C(C)NC)C3)c2)CCC2CCC(C(=O)NC(c3ccccc3)c3ccccc3)N2C1=O",
    "viability, T/C, %": 10.5
  },
  {
    "Compound": "COc1c(OCCCN2CCOCC2)ccc2c3n(c(=NC(=O)c4cnc(N)nc4)nc12)CCN3 + Cc1c(S(C)(=O)=O)c(-c2cc(F)cc(N3CCN(c4ccc(NS(=O)(=O)c5ccc(NC(CCN6CCC(C(=O)OCCCP(=O)(O)O)CC6)CSc6ccccc6)c(S(=O)(=O)C(F)(F)F)c5)cc4)CC3)c2)c(-c2ccc(Cl)cc2)n1C(C)C",
    "viability, T/C, %": 69
  },
  {
    "Compound": "Cn1ncnc1[C@H]1c2n[nH]c(=O)c3cc(F)cc(c23)N[C@@H]1c1ccc(F)cc1 + CNC(C)C(=O)NC1CN(S(=O)(=O)c2cccc(S(=O)(=O)N3CCC4CCC(C(=O)NC(c5ccccc5)c5ccccc5)N4C(=O)C(NC(=O)C(C)NC)C3)c2)CCC2CCC(C(=O)NC(c3ccccc3)c3ccccc3)N2C1=O",
    "viability, T/C, %": 11.5
  },
  {
    "Compound": "CNC(C)C(=O)NC1CN(S(=O)(=O)c2cccc(S(=O)(=O)N3CCC4CCC(C(=O)NC(c5ccccc5)c5ccccc5)N4C(=O)C(NC(=O)C(C)NC)C3)c2)CCC2CCC(C(=O)NC(c3ccccc3)c3ccccc3)N2C1=O (stereo not drawn) + Cc1c(S(C)(=O)=O)c(-c2cc(F)cc(N3CCN(c4ccc(NS(=O)(=O)c5ccc(NC(CCN6CCC(C(=O)OCCCP(=O)(O)O)CC6)CSc6ccccc6)c(S(=O)(=O)C(F)(F)F)c5)cc4)CC3)c2)c(-c2ccc(Cl)cc2)n1C(C)C",
    "viability, T/C, %": 21.4
  },
  {
    "Compound": "O=C(c1ccc(F)c(F)c1Nc1ccc(I)cc1F)N1CC(O)([C@@H]2CCCCN2)C1 + Cc1c(S(C)(=O)=O)c(-c2cc(F)cc(N3CCN(c4ccc(NS(=O)(=O)c5ccc(NC(CCN6CCC(C(=O)OCCCP(=O)(O)O)CC6)CSc6ccccc6)c(S(=O)(=O)C(F)(F)F)c5)cc4)CC3)c2)c(-c2ccc(Cl)cc2)n1C(C)C",
    "viability, T/C, %": 89.7
  }
]
